This collection of values is drawn from patent US20240270821A1.

Target: hGLP-1R (Homo sapiens, UniProt P43220)
Sequence (P43220 24-463): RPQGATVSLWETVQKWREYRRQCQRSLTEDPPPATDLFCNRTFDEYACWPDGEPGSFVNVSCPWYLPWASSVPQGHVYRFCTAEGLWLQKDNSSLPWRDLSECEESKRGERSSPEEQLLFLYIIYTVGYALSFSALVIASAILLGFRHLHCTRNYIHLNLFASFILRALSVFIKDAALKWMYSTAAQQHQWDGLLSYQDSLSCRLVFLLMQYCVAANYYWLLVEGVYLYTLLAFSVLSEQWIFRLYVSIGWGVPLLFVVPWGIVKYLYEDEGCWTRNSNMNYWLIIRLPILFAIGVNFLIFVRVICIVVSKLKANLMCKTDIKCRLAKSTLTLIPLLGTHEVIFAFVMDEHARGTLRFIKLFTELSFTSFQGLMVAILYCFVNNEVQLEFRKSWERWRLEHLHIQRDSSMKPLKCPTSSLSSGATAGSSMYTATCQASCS
Experiment: cell-based or functional assay
Starred links: 1 amine or outer side, 2 acyl side, 3 side chain; linkers in the order of their positions; H or OH if unused. Non-standard residues stand in square brackets, D forms with d. Groups on a side chain read outwards from the residue. No end group written: not given here. *: point of attachment. C20 diacid = O=C(O)CCCCCCCCCCCCCCCCCCC(=O)*; αMePhe(2-F) = C[C@](N)(Cc1ccccc1F)C(=O)O; γGlu = O=C(O)[C@H](CCC(=O)[*:2])N[*:1]; αMeL = CC(C)C[C@](C)(N)C(=O)O; Orn = NCCC[C@H](N)C(=O)O; AEEA = NCCOCCOCC(=O)O; Aib = CC(C)(N)C(=O)O
measure: log10(Relative cAMP EC50) (log10 of the value in nM)
Short version: log10 scale, Relative cAMP EC50, nM.

These recorded examples may help you get a feel for the data.
{"binder": "Y[Aib]QGT[αMePhe(2-F)]TSDYSILLDKAAQK[Orn]FIEYLIEGGPSSGEPPPSEG-NH2 (not fully specified (residue 20)) [Example 306]", "reading": -0.47}
{"binder": "YXQGTFTSDXSQXLDXKAQXAFIEYLIAGGPSSGEPPPSGSE (synthetic construct; SITE 2: note = 2-Aminoisobutyric Acid; SITE 10: note = 3-(4-Pyridyl)-L-alanine; SITE 13: note = alpha-methyl-leucine; SITE 16: note = L-ornithine; SITE 17: note = Lysine is chemically modified through conjugation of the epsilon-amino group of the Lysine side chain with (gamma-Gl)) [Example 1008]", "reading": 0.04}
{"binder": "YXQGTFTSDXSQXLDKKAQXAFIEXLIEXGPSSGAPPPSGTE (Lys acylated with (γGlu)2-C18 diacid; non-natural residues; C-amide; synthetic construct; SITE 2: note = 2-Aminoisobutyric Acid; SITE 10: note = 3-(4-Pyridyl)-L-alanine; SITE 13: note = alpha-methyl-leucine; SITE 17: note = Lysine is chemically modified through conjugation of the epsilon-amino group of the Lysine side chain with (gamma-Glu)2-CO-(CH2)16-CO2H; SITE 20:) [Example 1118]", "reading": 0.73}
{"binder": "YXQGTXTSDXXIXLDXKAQXXFIEXLAEGGPSSGEPPPSGTE (synthetic construct; SITE 2: note = 2-Aminoisobutyric Acid; SITE 6: note = alpha-methyl-2-fluoro-L-phenylalanine; SITE 10: note = 3-(4-Pyridyl)-L-alanine; SITE 11: note = alpha-methyl-L-serine; SITE 13: note = alpha-methyl-leucine; SITE 16: note = L-ornithine; SITE 17: note = Lysine is chemically mo) [Example 544]", "reading": -0.21}
{"binder": "YXQGTXTSDYSILLDKKAQXAFIEYLEEGGPSSGAPPPSE (synthetic construct; SITE 2: note = 2-Aminoisobutyric Acid; SITE 6: note = alpha-methyl-2-fluoro-L-phenylalanine; SITE 17: note = Lysine is chemically modified through conjugation of the epsilon-amino group of the Lysine side chain with (gamma-Glu)2-CO-(CH2)16-CO2H; SITE 20: note = 2-Aminoisobutyric) [Example 433]", "reading": -0.56}

Recorded result, YXQGTFTSDFSQXLDKKAQXAFIEYLLAGGPSSGEPPPSGS (synthetic construct; SITE 2: note = 2-Aminoisobutyric Acid; SITE 13: note = alpha-methyl-leucine; SITE 17: note = Lysine is chemically modified through conjugation of the epsilon-amino group of the Lysine side chain with (2-[2-(2-Amino-ethoxy)-ethoxy]-acetyl)-(gamma-Glu)-CO-(CH2) 16-CO2H; SITE 20: n) [Example 773] , log10(Relative cAMP EC50): 0.29

Recorded result, YXQGTFTSDXSXXLDXKAQXAFIEYLLAGGPSSGAPPPSGSEE (C-terminal amide; lysine acylated with (γ-Glu)2-C18 diacid; synthetic construct; SITE 2: note = 2-Aminoisobutyric Acid; SITE 10: note = 3-(4-Pyridyl)-L-alanine; SITE 12: note = L-ornithine; SITE 13: note = alpha-methyl-leucine; SITE 16: note = L-ornithine; SITE 17: note = Lysine is chemically modified through conjugation of the epsilon-amino group of the Lys) [Example 1068] , log10(Relative cAMP EC50): 1.06

Recorded result, YXQGTXTSDXXIXLDXKAAXEFIEXLIEGGPSSGEPPPSGSE (synthetic construct; SITE 2: note = 2-Aminoisobutyric Acid; SITE 6: note = alpha-methyl-2-fluoro-L-phenylalanine; SITE 10: note = 3-(4-Pyridyl)-L-alanine; SITE 11: note = alpha-methyl-L-serine; SITE 13: note = alpha-methyl-leucine; SITE 16: note = L-ornithine; SITE 17: note = Lysine is chemically mo) [Example 720] , log10(Relative cAMP EC50): -0.61

Recorded result, YXQGTXTSDYSILLDKKAQXNFIEYLEEGGPSSGAPPPS (synthetic construct; SITE 2: note = 2-Aminoisobutyric Acid; SITE 6: note = alpha-methyl-2-fluoro-L-phenylalanine; SITE 17: note = Lysine is chemically modified through conjugation of the epsilon-amino group of the Lysine side chain with (gamma-Glu)2-CO-(CH2)16-CO2H; SITE 20: note = 2-Aminoisobutyric) [Example 416] , log10(Relative cAMP EC50): -0.48

Recorded result, YXQGTXTSDYSILLDKKAQXAFIEYLEEGGPSSGAPPPSEG (synthetic construct; SITE 2: note = 2-Aminoisobutyric Acid; SITE 6: note = alpha-methyl-2-fluoro-L-phenylalanine; SITE 17: note = Lysine is chemically modified through conjugation of the epsilon-amino group of the Lysine side chain with (gamma-Glu)2-CO-(CH2)16-CO2H; SITE 20: note = 2-Aminoisobutyric) [Example 434] , log10(Relative cAMP EC50): -0.63

Recorded result, YXQGTFTSDXSQXLDXKAQXQFIQXLIAXGPSSGEPPPSGGGE (Aib, 4Pal, αMeL, Orn, Me4Pal, αMeY; acylated lysine; amide; synthetic construct; SITE 2: note = 2-Aminoisobutyric Acid; SITE 10: note = 3-(4-Pyridyl)-L-alanine; SITE 13: note = alpha-methyl-leucine; SITE 16: note = L-ornithine; SITE 17: note = Lysine is chemically modified through conjugation of the epsilon-amino group of the Lysine side chain with D-Glutami) [Example 1128] , log10(Relative cAMP EC50): -0.31

Recorded result, Y[Aib]QGTFTSDYSI[αMeL]LD[Orn]QAAK([AEEA-AEEA-γGlu-C20 diacid])QFVEWLLA[Aib]GPSSGEPPPSEG-NH2 [Example 328] , log10(Relative cAMP EC50): 0.11
